Entry source: patent US10538490B2

- Assay method text: Aqueous solubility in buffer versus acetonitrile/water (1/1), LC-UV
- Type: physicochemical
- Condition set: kinetic from dmso stock, buffer pH 2.2, 24 h shaking, 2.5% DMSO, ">" if more than 90% dissolved
Can you tell me solubility at 24 h for the items I'm about to list?

# compound COc1cc(C)c(-c2cc(CNc3ccc([C@H]4C[C@@H]4C(=O)O)cn3)c(F)cc2F)c(C)c1 [Example 68] ; its solubility at 24 h = > 120 µg/mL

# compound Cc1cccc(C)c1-c1ccc(F)c(CNc2ccc([C@H]3C[C@@H]3C(=O)O)cn2)c1 [Example 18] ; its solubility at 24 h = > 120 µg/mL

# compound Cc1c(C#N)cccc1-c1ccc(F)c2c1CC[C@H]2Oc1ccc([C@H]2C[C@@H]2C(=O)O)cc1 [WO 2013/178575 Example 54, reference compound] ; its solubility at 24 h = < 1 µg/mL

* * *

- Target under test: human GPR40 receptor (Homo sapiens, UniProt O14842)
- Sequence (O14842 whole entry): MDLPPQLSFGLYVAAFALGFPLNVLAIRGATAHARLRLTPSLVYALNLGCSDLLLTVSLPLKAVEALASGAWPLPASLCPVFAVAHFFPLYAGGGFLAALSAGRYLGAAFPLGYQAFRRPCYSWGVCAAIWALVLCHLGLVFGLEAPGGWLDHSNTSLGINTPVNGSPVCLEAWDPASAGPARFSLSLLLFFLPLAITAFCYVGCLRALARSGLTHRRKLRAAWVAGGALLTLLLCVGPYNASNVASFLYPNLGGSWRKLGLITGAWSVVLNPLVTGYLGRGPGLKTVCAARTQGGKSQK
- Assay method text: IP1 accumulation measurements using the IPOne assay system
- Condition set: 1321N1 cells stably expressing human GPR40 receptor, stimulation 1 h at 37° C.
Can you tell me EC50 for the items I'm about to list?

For the compound O=C(O)[C@H]1C[C@@H]1c1ccc(NCc2cc(-c3c(F)cc(OC4CC4)cc3F)c(F)cc2F)nc1 [Example 71] , the measured EC50 on human GPR40 receptor (Homo sapiens, UniProt O14842) was 0.14 µM

For the compound Cc1cc(C(=O)O)cc(C)c1-c1ccc(F)c(CNc2ccc([C@H]3C[C@@H]3C(=O)O)cn2)c1 [Example 27] , the measured EC50 on human GPR40 receptor (Homo sapiens, UniProt O14842) was > 10 µM

For the compound N#Cc1cccc(C#N)c1-c1ccc(F)c(CNc2ccc([C@H]3C[C@@H]3C(=O)O)cn2)c1 [Example 23] , the measured EC50 on human GPR40 receptor (Homo sapiens, UniProt O14842) was > 10 µM

* * *

Can you tell me pEC50 for the items I'm about to list?
- Target under test: human GPR40 receptor (Homo sapiens)
- Assay method text: IP1 accumulation measurements using the IPOne assay system
- Condition set: 1321N1 cells stably expressing human GPR40 receptor, stimulation 1 h at 37° C.
- Experimental: IP1 accumulation measurements using the IPOne assay system—1321N1 cells stably expressing human GPR40 receptor (Euroscreen, Belgium) are seeded 24 h before the assay in white 384-well plates in culture medium containing 10% FCS, 1% Na-Pyruvate and 400 μg/mL G418. IPi is assayed according to the manufacturer's description (Cisbio Bioassays, France). […] After an incubation time of 1 h at room temperature plates are measured using an EnVision™, Perkin Elmer. […]
Please express pEC50 as -log10 of the molar concentration.

# compound Cc1cc(-c2ccn(C)c(=O)n2)cc(C)c1-c1ccc(F)c(CNc2ccc([C@H]3C[C@@H]3C(=O)O)cn2)c1 ; its pEC50 = 7.14

# compound CC(C)c1ccccc1-c1cc(CNc2ccc([C@H]3C[C@@H]3C(=O)O)cn2)c(F)cc1F ; its pEC50 = 6.94

# compound Cc1cc(OCC2CCOC2)cc(C)c1-c1ccc(F)c(CNc2ccc([C@H]3C[C@@H]3C(=O)O)cn2)c1 (stereo partly drawn) ; its pEC50 = 7.07
